Molecular target: KuFL (full-length human Ku70–Ku80 heterodimer) (Homo sapiens, UniProt P12956+P13010)
Construct: The full-length human Ku heterodimer subunits (Ku70 1–609, Ku80 1–732); 10x His-tag with TEV site (N)
Sequence (P12956 whole entry): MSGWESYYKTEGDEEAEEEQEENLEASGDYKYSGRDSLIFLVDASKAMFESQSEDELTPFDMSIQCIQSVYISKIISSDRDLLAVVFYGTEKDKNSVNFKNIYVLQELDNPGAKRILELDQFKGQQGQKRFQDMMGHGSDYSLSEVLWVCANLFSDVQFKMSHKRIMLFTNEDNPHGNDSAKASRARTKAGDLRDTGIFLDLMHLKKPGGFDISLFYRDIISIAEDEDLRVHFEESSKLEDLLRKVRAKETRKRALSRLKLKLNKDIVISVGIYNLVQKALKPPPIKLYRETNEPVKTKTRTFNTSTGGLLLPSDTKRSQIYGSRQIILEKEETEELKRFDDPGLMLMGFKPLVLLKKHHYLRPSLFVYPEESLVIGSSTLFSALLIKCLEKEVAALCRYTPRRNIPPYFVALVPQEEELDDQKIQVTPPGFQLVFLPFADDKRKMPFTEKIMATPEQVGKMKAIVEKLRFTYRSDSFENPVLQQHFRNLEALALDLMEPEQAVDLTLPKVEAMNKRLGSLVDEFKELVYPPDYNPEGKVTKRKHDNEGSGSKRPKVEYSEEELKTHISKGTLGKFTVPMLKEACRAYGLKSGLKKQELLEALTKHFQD
Sequence (P13010 whole entry): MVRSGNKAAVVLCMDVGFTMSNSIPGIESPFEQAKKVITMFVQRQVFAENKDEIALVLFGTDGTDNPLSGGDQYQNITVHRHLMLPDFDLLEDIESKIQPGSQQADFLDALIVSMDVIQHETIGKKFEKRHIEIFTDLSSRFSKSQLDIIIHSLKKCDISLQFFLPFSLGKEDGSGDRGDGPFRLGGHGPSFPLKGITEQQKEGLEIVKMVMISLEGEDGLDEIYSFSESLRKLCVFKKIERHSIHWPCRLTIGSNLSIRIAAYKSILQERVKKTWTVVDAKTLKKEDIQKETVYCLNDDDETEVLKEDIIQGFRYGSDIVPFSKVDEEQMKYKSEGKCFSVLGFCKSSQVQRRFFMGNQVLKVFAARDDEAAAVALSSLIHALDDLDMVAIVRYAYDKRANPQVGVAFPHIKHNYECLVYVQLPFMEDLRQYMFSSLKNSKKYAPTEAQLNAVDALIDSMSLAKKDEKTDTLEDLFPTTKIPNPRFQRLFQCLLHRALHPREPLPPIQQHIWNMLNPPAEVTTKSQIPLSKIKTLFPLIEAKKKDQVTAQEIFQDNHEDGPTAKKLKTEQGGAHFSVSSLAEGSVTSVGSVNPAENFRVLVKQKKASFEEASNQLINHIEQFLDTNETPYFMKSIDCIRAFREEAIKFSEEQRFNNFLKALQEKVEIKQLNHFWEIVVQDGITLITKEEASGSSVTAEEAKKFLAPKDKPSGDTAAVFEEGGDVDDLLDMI
Assay: Isothermal titration calorimetry (ITC), KuFL with IP6 and IP6 analogues
Details: 25 °C, Ku 4 µM in cell, IPs 40 µM in syringe
Method: Purification of Ku full-length (KuFL) for cryo-EM experiments was carried out as described previously ([5]). Expression and purification of KuFL for biophysical experiments was carried out as described previously ([20]). […] Calorimetry. Interactions between KuFL and inositol phosphates (IPs) (IP6 and IP6 analogues) were determined by Isothermal Titration Calorimetry (ITC) using a VP-ITC calorimeter (Malvern). […]
Measurement Name: Kd (µM)
Numbers only, in µM.

Compound	Measurement Unit	Kd
O=P(O)(O)O[C@H]1[C@H](OP(=O)(O)O)[C@@H](OP(=O)(O)O)[C@H](OP(=O)(O)O)[C@@H](OP(=O)(O)O)[C@H]1OP(=O)(O)O [IP6, inositol hexaphosphate]	µM	0.0035
O=P(O)(O)OC1C(OP(=O)(O)O)C(OP(=O)(O)O)C(OP(=O)(O)O)C(OP(=O)(O)O)C1OP(=O)(O)O (stereo not drawn)	µM	0.022

Here is another compound to look at.
Input line: Annotate the compound O=P(O)(O)O[C@H]1[C@H](OP(=O)(O)O)[C@@H](OP(=O)(O)O)[C@H](OP(=O)(O)O)[C@@H](OP(=O)(O)O)[C@H]1OP(=O)(O)O [scyllo-IP6] with its measured Kd.
Output line: 0.018
